target: DP receptor (Homo sapiens, UniProt Q13258); construct: endogenous in cells; test: Receptor binding assay, [3H]-PGD2, platelet membrane; details: [3H]-PGD2, human platelet membrane, on ice 2 hours
pKi: −log10 of the molar value.
MEASURED PARAMETER: pKi

(Q) Field request: pKi | item: CC(C)Oc1ccc(S(=O)(=O)N2CC[C@@H](c3cn(CC(=O)O)c4cc(-c5ncco5)ccc34)C2)cc1 [Compound I-103]
(A) 7.70

[I] CC(C)Oc1ccc(S(=O)(=O)N2CCC(c3cn(CC(=O)O)c4c(Cl)cc(Cl)cc34)C2)cc1 (stereo not drawn) [Compound I-45]
[II] CC(C)Oc1ccc(S(=O)(=O)N2CC[C@@H](c3cn(CC(=O)O)c4cc(-c5nccs5)ccc34)C2)cc1 [Compound I-96]
(Q) Between I and II , which one shows the larger pKi value? Answer by stating the label of the chosen item.
(A) II
(II: 9.68, I: 7.72)

====

Molecular target: DP receptor (Homo sapiens, UniProt Q13258)
Construct: endogenous in cells
Sequence (Q13258 1-359): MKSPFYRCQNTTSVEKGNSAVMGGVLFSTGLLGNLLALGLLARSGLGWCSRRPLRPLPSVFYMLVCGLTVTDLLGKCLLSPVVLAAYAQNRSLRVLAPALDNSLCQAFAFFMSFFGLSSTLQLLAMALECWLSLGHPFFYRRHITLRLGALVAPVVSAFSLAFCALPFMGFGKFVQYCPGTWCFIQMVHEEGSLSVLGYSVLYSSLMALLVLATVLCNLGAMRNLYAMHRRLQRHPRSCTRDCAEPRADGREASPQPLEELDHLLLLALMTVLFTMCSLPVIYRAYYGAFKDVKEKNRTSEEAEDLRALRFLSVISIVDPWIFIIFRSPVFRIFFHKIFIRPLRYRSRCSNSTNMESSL
Assay: cAMP assay with washed platelets (DP inhibitory activity in vitro)
Settings: 100 nM PGD2, cAMP by HTRF, read-out: IC50 (50% DP-inhibitory concentration in the cAMP assay)
MEASURED PARAMETER: IC50 (nM)

[A] CC(C)Oc1ccc(S(=O)(=O)N2CCC(c3cn(CC(=O)O)c4cc(-c5cccs5)ccc34)C2)cc1 (centres unmarked) [Compound I-66]
[B] CC(C)Oc1ccc(S(=O)(=O)N2CCC(c3cn(CC(=O)O)c4cc(-c5ccco5)ccc34)C2)cc1 (centres unmarked) [Compound I-77]
(Q) Between these two entries, A and B , state which has the higher IC50. Give the chosen item's label as your response.
(A) A
(A: 1.9 nM, B: 0.62 nM)

====

biological target: DP receptor (Homo sapiens); construct: endogenous in cells; test: Receptor binding assay, [3H]-PGD2, platelet membrane; conditions: [3H]-PGD2, human platelet membrane, on ice 2 hours
pKi: −log10 of the molar value.
MEASURED PARAMETER: pKi

(Q) Missing value: pKi, DP receptor (Homo sapiens), entry "CC(C)Oc1ccc(S(=O)(=O)N2CCC(c3cn(CC(=O)O)c4ccc(Cl)cc34)CC2)cc1" . Fill in?
(A) 8.89

(Q) What do we get for "CC(C)Oc1ccc(S(=O)(=O)N2CC[C@@H](c3cn(CC(=O)O)c4cc(Cl)ccc34)C2)cc1" ?
(A) 9.04

(Q) Same again, this time with "CC(C)Oc1ccc(S(=O)(=O)N2CCC(c3cn(CC(=O)O)c4cc(-c5ncco5)ccc34)CC2)cc1"
(A) 8.89
